# Tested on: Rattus norvegicus
# testConditions: acute; oral; gavage
Hi there, I'd appreciate the recorded LD50 for every entry that follows.
Give your result in mg/kg as a bare value.

Input CS(C)=O [Dimethyl sulfoxide] , output reported LD50.
28300

Give reported LD50 value for CC(C)CC(=O)CC(C)CC(C)C (configuration not stated) [2,6,8-Trimethyl-4-nonanone]
8470

Recall and state the measured LD50 for CCCCCCCCCCCCCCCCCCN(C)C [N,N-Dimethyl-1-octadecanamine] .
2120

Give reported LD50 value for O=C(O)CCC(=O)O [Butanedioic acid]
2260

Supply recorded LD50 for CC(C)OB(OC(C)C)OC(C)C [Triisopropyl orthoborate] here.
8130

State its LD50: CC(C)C#N [2-Methylpropanenitrile]
77
